# Test system: U87MG IDH1 R132H mutant glioma cells (U87MUT)
# assayComment: Presto Blue viability assay, U87MUT; ZIP synergy scoring
# Format: cell-based
# experimentalContext: U87 IDH1 MUT, + TMZ 30 µM, ZIP model (SynergyFinder+); > 10 synergistic, −10 to +10 additive, < −10 antagonism
Quick rule for you: Synergy score at 1 or higher means criterion met, lower means criterion not met.

Prompt: Can O=C(CC1Nc2ccccc2NC1=O)Nc1cccc(C(=O)O)c1 (stereo not drawn) [Compound 3] be said to have Synergy score at or above 1?
Completion: criterion met

Prompt: Subsequent entry: COc1ccc2[nH]c(=O)c(CNc3ccc4c(c3)-c3ccccc3S(=O)(=O)N4)cc2c1 [Compound 5]
Completion: criterion not met

Prompt: Subsequent entry: C=CC1=C(C(=O)O)N2C(=O)[C@@H](NC(=O)/C(=N\O)c3csc(N)n3)[C@H]2SC1 [Cefdinir]
Completion: criterion met

Prompt: Subsequent entry: Oc1cc(O)cc(/C=C/c2ccc(O)c(O)c2)c1 [Compound 2]
Completion: criterion not met

Prompt: Subsequent entry: O=C(Cc1ccccc1)Nc1cc(C(=O)O)c(NC(=O)Cc2ccccc2)cc1C(=O)O [Compound 4]
Completion: criterion met

Prompt: Subsequent entry: O=C(CC1Sc2ccccc2NC1=O)Nc1cccc(C(=O)O)c1 (stereo not drawn) [Compound 1]
Completion: criterion met
